Target: wild type human HSD17B13 (Homo sapiens (Human), UniProt Q7Z5P4)
Sequence (Q7Z5P4 20-300): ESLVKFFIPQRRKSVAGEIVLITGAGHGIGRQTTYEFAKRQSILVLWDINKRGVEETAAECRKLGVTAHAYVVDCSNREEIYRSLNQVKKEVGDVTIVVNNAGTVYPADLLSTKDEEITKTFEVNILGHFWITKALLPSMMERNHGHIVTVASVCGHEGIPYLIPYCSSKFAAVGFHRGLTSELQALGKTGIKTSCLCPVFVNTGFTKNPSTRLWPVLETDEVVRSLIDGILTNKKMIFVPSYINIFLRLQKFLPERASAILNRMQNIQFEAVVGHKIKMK
Experiment: HEK_Beta-Est LCMS_IC50_Tekcel, whole-cell HEK-HSD17B13 inhibition assay, estrone production by LCMS
Details: geometric mean, HEK cells stably expressing wild type human HSD17B13, 25 μM FAC beta-estradiol, read-out: HEK_Beta-Est LCMS_IC50—Tekcel GMean IC50
Counter-ions that a name gives are not always drawn.
readout-type: pIC50
Notebook: values listed as pIC50 are -log10 of the concentration (mol/L).

Known results for compounds:
The reported value for COc1ccc(-c2ccc3cn([C@H]4CC[C@H](CNC(=O)c5cc(F)c(O)c(F)c5)CC4)nc3c2)nc1 [Example 99, trifluoroacetate salt] in terms of pIC50 is 6.66

// field: pIC50; key: `COc1ncc(-c2ccc3cn([C@H]4CC[C@H](CNC(=O)c5cc(F)c(O)c(F)c5)CC4)nc3c2)cn1` ; value = 6.77

The compound `Cc1cc(C)nc(-c2ccc3cn([C@H]4CC[C@H](CNC(=O)c5cc(F)c(O)c(F)c5)CC4)nc3c2)n1` showed pIC50 equal to 6.48

# pIC50 (compound: `O=C(NC[C@H]1CC[C@H](n2cc3ccc(-c4ccns4)cc3n2)CC1)c1cc(F)c(O)c(F)c1` ) is 7.03

So, `CN1CCn2ncc(-c3ccc4cn([C@H]5CC[C@H](CNC(=O)c6cc(F)c(O)c(F)c6)CC5)nc4c3)c21` ? Its pIC50 was 6.36

New cases:
Per the record, `O=C(NC[C@H]1CC[C@H](n2cc3ccc(-c4ncns4)cc3n2)CC1)c1cc(F)c(O)c(F)c1` has pIC50 of 6.92

Record `Cn1nc(-c2noc([C@]34CC[C@](CNC(=O)c5cc(F)c(O)c(F)c5F)(CC3)CC4)n2)ccc1=O` . Reported pIC50: 6.42

Origin of measurements: patent US20240150334A1
